Provenance of the data: patent US7968725B2

inhibition at 1 µM values, listed per item
Target: γ-secretase (Homo sapiens)
Construct: endogenous in cells; host or cells: SKNBE2 cells carrying APP 695 wild type
Assay Remarks: Screening for γ-secretase-modulating activity in SKNBE2 cells carrying the APP 695-wild type (assay per Citron et al 1997)
Assay type: cell-based
Experimental Parameters: @ 1 uM; SKNBE2 cells carrying APP 695-wild type

- Compound: "O=C(O)Cc1cc(-c2ccc(C(F)(F)F)cc2)nc(N(CCC2CCCCC2)c2ccc(C(F)(F)F)cc2)c1 [Example 43]"
  Target: "γ-secretase (Homo sapiens)"
  inhibition at 1 µM, %: 56
- Compound: "CC(C)CC(C(=O)O)c1cc(-c2ccc(C(F)(F)F)cc2)nc(-c2cccc(-c3ccccc3)c2)c1 (stereo not shown) [Example 35]"
  Target: "γ-secretase (Homo sapiens)"
  inhibition at 1 µM, %: 53
- Compound: "C=C(C)CC(C(=O)O)c1cc(-c2ccc(C(F)(F)F)cc2)nc(-c2ccc(C(F)(F)F)nc2)c1 (stereo not shown) [Example 31]"
  Target: "γ-secretase (Homo sapiens)"
  inhibition at 1 µM, %: 59
- Compound: "C=C(C)CC(C(=O)O)c1cc(-c2ccc(C)cc2)nc(-c2ccc(C(F)(F)F)cc2)c1 (stereo not shown) [Example 32]"
  Target: "γ-secretase (Homo sapiens)"
  inhibition at 1 µM, %: 7

---

Target: γ-secretase (Homo sapiens, UniProt P49768)
Construct: endogenous in cells; host or cells: SKNBE2 cells carrying APP 695 wild type
Assay Remarks: Screening for γ-secretase-modulating activity in SKNBE2 cells carrying the APP 695-wild type (assay per Citron et al 1997)
Assay type: cell-based
Experimental Parameters: @ 1 uM; SKNBE2 cells carrying APP 695-wild type
// label = T if inhibition at 1 µM is not less than 10%, otherwise F

- Compound: "CC(C)CC(C(=O)O)c1cc(-c2ccc(C(F)(F)F)cc2)nc(-c2cncc3ccccc23)c1 (centres unmarked)"
  Class Name: "T"
- Compound: "C=C(C)CC(C(=O)O)c1cc(-c2ccc(C(F)(F)F)cc2)nc(-c2cccc(-c3ccccc3)c2)c1 (centres unmarked)"
  Class Name: "T"
- Compound: "C=C(C)CC(C(=O)O)c1cc(-c2ccc(C(F)(F)F)cc2)nc(-c2ccc(F)cc2F)c1 (centres unmarked)"
  Class Name: "F"
- Compound: "CC(C)COc1cccc(-c2cc(C(CC(C)C)C(=O)O)cc(-c3ccc(C(F)(F)F)cc3)n2)c1 (centres unmarked)"
  Class Name: "T"
- Compound: "CC(C)CC(C(=O)O)c1cc(-c2ccc(C(F)(F)F)cc2)nc(-c2cccc(F)c2F)c1 (centres unmarked)"
  Class Name: "T"
- Compound: "CC(C)CC(C(=O)O)c1cc(-c2ccc(C(F)(F)F)cc2)nc(-c2ccc(C(F)(F)F)nc2)c1 (centres unmarked)"
  Class Name: "F"
- Compound: "CC(C)CC(C(=O)O)c1cc(-c2ccc(C(F)(F)F)cc2)nc(-c2ccc3ccccc3c2)c1 (centres unmarked)"
  Class Name: "T"
- Compound: "CC(C)CC(C(=O)O)c1cc(-c2ccc(C(F)(F)F)cc2)nc(N(CCN2CCCCC2)c2ccc(C(F)(F)F)cc2)c1 (centres unmarked)"
  Class Name: "T"
- Compound: "C=C(C)CC(C(=O)O)c1cc(-c2ccc(C(F)(F)F)cc2)nc(-c2c(F)cccc2F)c1 (centres unmarked)"
  Class Name: "F"
- Compound: "Cc1ccc(-c2cc(C(CC(C)C)C(=O)O)cc(-c3ccc(C(F)(F)F)cc3)n2)cc1 (centres unmarked)"
  Class Name: "F"
- Compound: "COc1ccc(-c2cc(C(CC(C)C)C(=O)O)cc(-c3ccc(C(F)(F)F)cc3)n2)cc1 (centres unmarked)"
  Class Name: "F"
- Compound: "CC(C)CC(C(=O)O)c1cc(-c2ccc(Oc3ccccc3)cc2)nc(-c2ccc(C(F)(F)F)cc2)c1 (centres unmarked)"
  Class Name: "T"
- Compound: "CC(C)CC(C(=O)O)c1cc(-c2ccc(C(F)(F)F)cc2)nc(-c2c(F)cccc2F)c1 (centres unmarked)"
  Class Name: "F"
- Compound: "CC(C)CCN(c1ccc(C(F)(F)F)cc1)c1cc(CC(=O)O)cc(-c2ccc(C(F)(F)F)cc2)n1"
  Class Name: "T"
- Compound: "CC(C)CC(C(=O)O)c1cc(-c2ccc(C(F)(F)F)cc2)nc(-c2cc3ccccc3s2)c1 (centres unmarked)"
  Class Name: "T"
- Compound: "CC(C)CCN(c1ccc(C(C)(C)C)cc1)c1cc(C(CC(C)C)C(=O)O)cc(-c2ccc(C(F)(F)F)cc2)n1 (centres unmarked)"
  Class Name: "T"
- Compound: "C=C(C)CC(C(=O)O)c1cc(-c2ccc(C(F)(F)F)cc2)nc(-c2ccc3ccccc3c2)c1 (centres unmarked)"
  Class Name: "T"

---

Target: γ-secretase (Homo sapiens)
Construct: endogenous in cells; host or cells: SKNBE2 cells carrying APP 695 wild type
Assay Remarks: Screening for γ-secretase-modulating activity in SKNBE2 cells carrying the APP 695-wild type (assay per Citron et al 1997)
Type: cell-based
Experimental Parameters: @ 1 uM; SKNBE2 cells carrying APP 695-wild type
Binary classification by inhibition at 1 µM, with 20% as an inclusive lower bound for Y; all other cases are N.

- Compound: "CC(C)CC(C(=O)O)c1cc(-c2ccc(C(F)(F)F)cc2)nc(-c2ccc(C(F)(F)F)cc2C(F)(F)F)c1 (stereo not shown)"
  Target: "γ-secretase (Homo sapiens)"
  Class Name: "Y"
- Compound: "CC(C)CC(C(=O)O)c1cc(-c2ccc(-c3ccccc3)cc2)nc(-c2ccc(C(F)(F)F)cc2)c1 (stereo not shown)"
  Target: "γ-secretase (Homo sapiens)"
  Class Name: "Y"
- Compound: "C=C(C)CC(C(=O)O)c1cc(-c2ccc(C(F)(F)F)cc2)nc(-c2cc(F)ccc2F)c1 (stereo not shown)"
  Target: "γ-secretase (Homo sapiens)"
  Class Name: "Y"
- Compound: "CC(C)CC(C(=O)O)c1cc(-c2ccccc2)nc(-c2ccc(C(F)(F)F)cc2)c1 (stereo not shown)"
  Target: "γ-secretase (Homo sapiens)"
  Class Name: "N"
- Compound: "CC(C)CC(C(=O)O)c1cc(-c2ccc(C(F)(F)F)cc2)nc(-c2cc(F)ccc2F)c1 (stereo not shown)"
  Target: "γ-secretase (Homo sapiens)"
  Class Name: "N"
- Compound: "C=C(C)CC(C(=O)O)c1cc(-c2ccc(C(F)(F)F)cc2)nc(-c2cc3ccccc3s2)c1 (stereo not shown)"
  Target: "γ-secretase (Homo sapiens)"
  Class Name: "N"
- Compound: "CC(C)CC(C(=O)O)c1cc(-c2ccc(C(F)(F)F)cc2)nc(-c2ccc(S(C)(=O)=O)cc2)c1 (stereo not shown)"
  Target: "γ-secretase (Homo sapiens)"
  Class Name: "N"

---

Target: γ-secretase (Homo sapiens)
Construct: endogenous in cells
Assay Remarks: Screening for γ-secretase-modulating activity in SKNBE2 cells carrying the APP 695-wild type (assay per Citron et al 1997)
Experimental Parameters: SKNBE2 cells carrying APP 695-wild type
pEC50: −log10 of the molar value.
compounds and their reported pEC50
Property Label: pEC50

- Compound: "CC(C)CC(C(=O)O)c1cc(-c2ccc(OC(F)(F)F)cc2)nc(-c2ccc(C(F)(F)F)cc2)c1 (stereo not shown)"
  Property Label: "pEC50"
  Recorded Measurement: 6.42
- Compound: "CC(C)CC(C(=O)O)c1cc(-c2ccc(C(F)(F)F)cc2)nc(-c2cc(F)cc(C(F)(F)F)c2)c1 (stereo not shown)"
  Property Label: "pEC50"
  Recorded Measurement: 6.92
- Compound: "CC(C)CC(C(=O)O)c1cc(-c2ccc(C(F)(F)F)cc2)nc(-c2cc(C(F)(F)F)cc(C(F)(F)F)c2)c1 (stereo not shown)"
  Property Label: "pEC50"
  Recorded Measurement: 6.57
- Compound: "CC(C)CC(C(=O)O)c1cc(-c2ccc(C(F)(F)F)cc2)nc(-c2cnc3ccccc3c2)c1 (stereo not shown)"
  Property Label: "pEC50"
  Recorded Measurement: 6.17
- Compound: "CC(C)CC(C(=O)O)c1cc(-c2ccc(C(F)(F)F)cc2)nc(-c2ccc(C(F)(F)F)cc2)c1 (stereo not shown)"
  Property Label: "pEC50"
  Recorded Measurement: 6.59
- Compound: "CC(C)CC(C(=O)O)c1cc(-c2ccc(C(F)(F)F)cc2)nc(N(CCC2CCCCC2)c2ccc(C(F)(F)F)cc2)c1 (stereo not shown)"
  Property Label: "pEC50"
  Recorded Measurement: 6.19
- Compound: "CC(C)CC(C(=O)O)c1cc(-c2ccc(C(F)(F)F)cc2)nc(-c2cc(F)cc(F)c2)c1 (stereo not shown)"
  Property Label: "pEC50"
  Recorded Measurement: 6.70

---

Target: γ-secretase (Homo sapiens)
Construct: endogenous in cells
Assay Remarks: Screening for γ-secretase-modulating activity in SKNBE2 cells carrying the APP 695-wild type (assay per Citron et al 1997)
Experimental Parameters: SKNBE2 cells carrying APP 695-wild type
pEC50: −log10 of the molar value.
Property Label: pEC50

- Molecule: "CC(C)CCN(c1ccc(C(F)(F)F)cc1)c1cc(C(CC(C)C)C(=O)O)cc(-c2ccc(C(F)(F)F)cc2)n1 (stereo not shown)"
  Target: "γ-secretase (Homo sapiens)"
  Property Label: "pEC50"
  Recorded Measurement: 6.52
- Molecule: "CC(C)CC(C(=O)O)c1cc(-c2ccc(C(C)C)cc2)nc(-c2ccc(C(F)(F)F)cc2)c1 (stereo not shown)"
  Target: "γ-secretase (Homo sapiens)"
  Property Label: "pEC50"
  Recorded Measurement: 6.14
- Molecule: "CC(C)CCN(c1ccc(C(C)(C)C)cc1)c1cc(CC(=O)O)cc(-c2ccc(C(F)(F)F)cc2)n1"
  Target: "γ-secretase (Homo sapiens)"
  Property Label: "pEC50"
  Recorded Measurement: 5.89
- Molecule: "CC(C)CC(C(=O)O)c1cc(-c2ccc(C(F)(F)F)cc2)nc(N(CC(C)C)c2ccc(C(F)(F)F)cc2)c1 (stereo not shown)"
  Target: "γ-secretase (Homo sapiens)"
  Property Label: "pEC50"
  Recorded Measurement: 6.47
